# TEST_TARGET: UniProt O75469
# Sequence (O75469 whole entry): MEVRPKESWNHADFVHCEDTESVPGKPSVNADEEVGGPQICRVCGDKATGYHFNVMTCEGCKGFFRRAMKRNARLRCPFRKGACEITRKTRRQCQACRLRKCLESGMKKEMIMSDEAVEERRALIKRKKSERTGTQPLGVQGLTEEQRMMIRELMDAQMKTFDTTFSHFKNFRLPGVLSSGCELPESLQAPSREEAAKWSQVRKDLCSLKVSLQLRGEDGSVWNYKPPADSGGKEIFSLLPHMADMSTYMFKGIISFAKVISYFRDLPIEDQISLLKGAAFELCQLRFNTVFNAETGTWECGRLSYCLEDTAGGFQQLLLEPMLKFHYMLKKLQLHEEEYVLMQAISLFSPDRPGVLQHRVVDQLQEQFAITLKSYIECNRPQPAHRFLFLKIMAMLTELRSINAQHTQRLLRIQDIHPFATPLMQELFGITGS
# EXPERIMENT_NOTES: Activation of PXR (unknown origin)
MEASUREMENT_LABEL: pEC50
Reminder that pEC50 is minus the log10 of a molar concentration.

The recorded pEC50 for entry `COC(=O)N[C@H](C(=O)N1CCC[C@H]1c1ncc(-c2ccc(-c3cc4cc(-c5cnc([C@@H]6CCCN6C(=O)[C@@H](NC(=O)OC)C(C)C)[nH]5)ccc4o3)cc2)[nH]1)C(C)C` equals 5.48

###

# System: Hepatitis C virus
# EXPERIMENT_NOTES: Antiviral activity against HCV genotype 2a by replicon assay
# Format: functional, organism-based, Hepacivirus hominis
MEASUREMENT_LABEL: pEC50
Reminder that pEC50 is minus the log10 of a molar concentration.

{"SMILES_REPRESENTATION": "COC(=O)N[C@H](C(=O)N1C[Si](C)(C)C[C@H]1c1ncc(-c2ccc(-c3ccc4c(ccc5nc([C@@H]6CCCN6C(=O)[C@@H](NC(=O)OC)C(C)C)[nH]c54)c3)cc2)[nH]1)C(C)C", "VALUE_MEASURED": 10.70}
{"SMILES_REPRESENTATION": "COC(=O)N[C@H](C(=O)N1C[Si]2(CCCC2)C[C@H]1c1ncc(-c2ccc(-c3ccc4c(ccc5nc([C@@H]6CCCN6C(=O)[C@@H](NC(=O)OC)C(C)C)[nH]c54)c3)cc2)[nH]1)C(C)C", "VALUE_MEASURED": 11.00}
{"SMILES_REPRESENTATION": "COC(=O)N[C@H](C(=O)N1CCC[C@H]1c1ncc(-c2ccc(-c3ccc(-c4cnc([C@@H]5C[Si](C)(C)CN5C(=O)[C@@H](NC(=O)OC)C(C)C)[nH]4)cc3)cc2)[nH]1)C(C)C", "VALUE_MEASURED": 10.40}
{"SMILES_REPRESENTATION": "COC(=O)N[C@H](C(=O)N1CCC[C@H]1c1ncc(-c2ccc(-c3ccc4c(ccc5nc([C@@H]6C[Si](C)(C)CN6C(=O)[C@@H](NC(=O)OC)C(C)C)[nH]c54)c3)cc2)[nH]1)C(C)C", "VALUE_MEASURED": 11.40}
{"SMILES_REPRESENTATION": "COC(=O)N[C@H](C(=O)N1C[Si](C)(C)C[C@H]1c1ncc(-c2ccc(-c3ccc(-c4cnc([C@@H]5C[Si](C)(C)CN5C(=O)[C@@H](NC(=O)OC)C(C)C)[nH]4)cc3)cc2)[nH]1)C(C)C", "VALUE_MEASURED": 9.60}
{"SMILES_REPRESENTATION": "COC(=O)N[C@H](C(=O)N1CCC[C@H]1c1ncc(-c2ccc(-c3cc4cc(-c5cnc([C@@H]6CCCN6C(=O)[C@@H](NC(=O)OC)C(C)C)[nH]5)ccc4o3)cc2)[nH]1)C(C)C", "VALUE_MEASURED": 9.40}

The recorded pEC50 for entry `COC(=O)N[C@H](C(=O)N1CCC[C@H]1c1ncc(-c2ccc(-c3cc4cc(-c5cnc([C@@H]6C[Si](C)(C)CN6C(=O)[C@@H](NC(=O)OC)C(C)C)[nH]5)ccc4o3)cc2)[nH]1)C(C)C` equals 8.62

The recorded pEC50 for entry `COC(=O)N[C@H](C(=O)N1CCC[C@H]1c1ncc(-c2ccc(-c3ccc(-c4cnc([C@@H]5CCCN5C(=O)[C@@H](NC(=O)OC)C(C)C)[nH]4)cc3)cc2)[nH]1)C(C)C` equals 10.40
